Values were extracted from patent US20150307617A1.

# target_of_assay: T1, Human OX40 (Sino Biological Inc) (human, UniProt P43489 29-216, limits assumed)
# T1 construct: Bought soluble protein used as SPR analyte; also called huOX40
# T1 sequence: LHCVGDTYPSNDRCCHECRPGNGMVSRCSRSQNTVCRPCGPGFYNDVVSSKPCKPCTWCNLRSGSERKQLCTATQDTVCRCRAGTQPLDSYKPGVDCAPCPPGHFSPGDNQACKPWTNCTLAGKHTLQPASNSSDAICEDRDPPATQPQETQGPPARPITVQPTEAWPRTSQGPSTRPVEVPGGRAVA
# test_protocol: SPR (Biacore), antibody captured via anti-human Fc, huOX40 analyte
Note to self: koff under 0.0001 s⁻¹ means satisfied, ties and anything higher get not satisfied.

{"binder": "1A7.gr.DANADA (antibody, V domains shown) VH: EVQLVQSGAEVKKPGASVKVSCKASGYTFTDAYMSWVRQAPGQGLEWIGDMYPDNADASYNQKFRERVTITRDTSTSTAYLELSSLRSEDTAVYYCVLAPRWYFSVWGQGTLVTVSS VL: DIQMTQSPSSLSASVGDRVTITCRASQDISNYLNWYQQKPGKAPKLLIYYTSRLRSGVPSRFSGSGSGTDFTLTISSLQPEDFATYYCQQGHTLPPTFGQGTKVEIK", "assigned_label": "not satisfied"}
{"binder": "1A7.gr.DA (antibody, V domains shown) VH: EVQLVQSGAEVKKPGASVKVSCKASGYTFTDAYMSWVRQAPGQGLEWIGDMYPDNGDSSYNQKFRERVTITRDTSTSTAYLELSSLRSEDTAVYYCVLAPRWYFSVWGQGTLVTVSS VL: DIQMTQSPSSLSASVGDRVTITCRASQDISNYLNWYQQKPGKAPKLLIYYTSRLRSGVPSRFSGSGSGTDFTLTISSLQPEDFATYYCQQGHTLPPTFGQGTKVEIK", "assigned_label": "satisfied"}
{"binder": "1A7.gr.NADA (antibody, V domains shown) VH: EVQLVQSGAEVKKPGASVKVSCKASGYTFTDSYMSWVRQAPGQGLEWIGDMYPDNADASYNQKFRERVTITRDTSTSTAYLELSSLRSEDTAVYYCVLAPRWYFSVWGQGTLVTVSS VL: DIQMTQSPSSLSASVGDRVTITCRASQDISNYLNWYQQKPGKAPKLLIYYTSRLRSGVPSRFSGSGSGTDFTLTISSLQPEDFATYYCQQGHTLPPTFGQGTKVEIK", "assigned_label": "not satisfied"}
{"binder": "1A7.gr.NGSS (antibody, V domains shown) VH: EVQLVQSGAEVKKPGASVKVSCKASGYTFTDSYMSWVRQAPGQGLEWIGDMYPDNGSSSYNQKFRERVTITRDTSTSTAYLELSSLRSEDTAVYYCVLAPRWYFSVWGQGTLVTVSS VL: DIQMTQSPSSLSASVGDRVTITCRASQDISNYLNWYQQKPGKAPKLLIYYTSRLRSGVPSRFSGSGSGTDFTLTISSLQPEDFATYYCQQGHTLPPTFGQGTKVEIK", "assigned_label": "not satisfied"}
{"binder": "1A7.gr.SGDS (antibody, V domains shown) VH: EVQLVQSGAEVKKPGASVKVSCKASGYTFTDSYMSWVRQAPGQGLEWIGDMYPDSGDSSYNQKFRERVTITRDTSTSTAYLELSSLRSEDTAVYYCVLAPRWYFSVWGQGTLVTVSS VL: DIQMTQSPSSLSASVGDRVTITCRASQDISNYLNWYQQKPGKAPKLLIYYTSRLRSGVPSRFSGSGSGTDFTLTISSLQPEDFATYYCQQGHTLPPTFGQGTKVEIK", "assigned_label": "not satisfied"}
{"binder": "1A7.gr.NADS (antibody, V domains shown) VH: EVQLVQSGAEVKKPGASVKVSCKASGYTFTDSYMSWVRQAPGQGLEWIGDMYPDNADSSYNQKFRERVTITRDTSTSTAYLELSSLRSEDTAVYYCVLAPRWYFSVWGQGTLVTVSS VL: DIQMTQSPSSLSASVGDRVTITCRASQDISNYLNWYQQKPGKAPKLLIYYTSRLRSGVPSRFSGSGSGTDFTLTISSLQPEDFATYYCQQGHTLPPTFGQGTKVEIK", "assigned_label": "not satisfied"}
